# test-system: PD-1/PD-L1 interaction (PD-1-Ig / PD-L1-His) (Homo sapiens, UniProt Q9NZQ7)
# Construct: hPDL1(18-239)-TVMV-His; TVMV protease site linker (C); made in house; host or cells: HEK293T
# Sequence (Q9NZQ7 with tags, fused parts or gaps): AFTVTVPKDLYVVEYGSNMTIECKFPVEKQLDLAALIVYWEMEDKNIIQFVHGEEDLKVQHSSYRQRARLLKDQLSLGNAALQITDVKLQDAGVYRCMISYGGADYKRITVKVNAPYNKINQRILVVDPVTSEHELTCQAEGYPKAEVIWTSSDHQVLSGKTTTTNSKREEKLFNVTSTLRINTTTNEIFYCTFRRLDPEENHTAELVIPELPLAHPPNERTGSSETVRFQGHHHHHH
# test-method-notes: PD-1/PD-L1 Homogenous Time-Resolved Fluorescence (HTRF) binding assay
# condition: IC50 range class; PD-L1-His 10 nM, PD-1-Ig 20 nM; read-out: Range or IC50
readout-type: IC50

Reference set, count: 4
compound	endpoint-result
Cc1c(OCCCN(C)Cc2ccncc2)cccc1-c1cccc(OCCCN2CC[C@@H](O)C2)c1C	20.1 to 90 nM
COc1cc(OCc2cccc(-c3cccc(COc4cc(OC)c(CN(C)Cc5cc[nH]n5)cc4Cl)c3C)c2C)c(Cl)cc1CN(C)Cc1cc[nH]n1	20.1 to 90 nM
Cc1c(COc2cc(OCc3cncc(C#N)c3)c(CNC(CC(=O)O)c3ccc(F)cc3)cc2Cl)cccc1-c1cccc(COc2cc(OCc3cncc(C#N)c3)c(CNC(CC(=O)O)c3ccc(F)cc3)cc2Cl)c1C (centres unmarked)	20.1 to 90 nM
Cc1cc(OCc2cccc(-c3cccc(COc4cc(OCc5cncc(C#N)c5)c(CNCCC(=O)O)cc4Cl)c3C)c2C)c(Cl)cc1CNCCC(=O)O	0.04 to 20 nM

input: Note IC50 for the compound shown: Cc1c(COc2cc(OCc3cncc(C#N)c3)c(CO)cc2Cl)cccc1-c1cccc(COc2cc(OCc3cncc(C#N)c3)c(CN3CCCC(C(=O)O)C3)cc2Cl)c1C (centres unmarked)
output: 0.04 to 20 nM

input: Provide only the value of recorded IC50 for `Cc1c(OCCCN[C@@H](CO)Cc2ncn(C)c2Cl)cccc1-c1cccc(OCCCN2CC[C@@H](O)C2)c1C`
output: 90.1 to 1000 nM

input: Return IC50 (reported value) for this compound: `Cc1c(OCCCNCCc2cn(C)cn2)cccc1-c1cccc(OCCCN2CC[C@@H](O)C2)c1C`
output: 90.1 to 1000 nM

input: Report measured IC50; entry is Cc1c(OCCCN2CC[C@@H](O)C2)cccc1-c1ccc2c(c1)OC(CCN1CC[C@@H](O)C1)CO2 (single isomer, unassigned) [Example 3031]
output: 0.04 to 20 nM
